tested on: MAP2K6 (human), P52564 [S207E/T211E]; experiment: radiometric filter-binding kinase assay, Kinase HotSpot; settings: compound 0.5 µM; ATP 10 µM
Sequence (P52564 whole entry S207E/T211E, looked up): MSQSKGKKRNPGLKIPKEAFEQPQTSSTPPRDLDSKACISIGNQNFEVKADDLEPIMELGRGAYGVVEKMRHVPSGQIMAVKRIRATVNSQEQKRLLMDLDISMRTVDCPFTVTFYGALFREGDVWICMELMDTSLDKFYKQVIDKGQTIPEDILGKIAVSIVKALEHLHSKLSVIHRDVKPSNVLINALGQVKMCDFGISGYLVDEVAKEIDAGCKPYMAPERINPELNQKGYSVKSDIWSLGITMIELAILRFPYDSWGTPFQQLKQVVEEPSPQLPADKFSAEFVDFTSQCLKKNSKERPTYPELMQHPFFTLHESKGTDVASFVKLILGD
Each entry below carries its recorded residual activity.
Report the figure in % without appending any unit label.

Solved cases below.
COc1cc2ncc(-c3ccccc3)nc2cc1OC :: 94.9
Nc1ncnc2[nH]nc(Nc3ccc(F)cc3)c12 :: 87.6
COc1ccc2c(c[n+](C)c3c4cc5c(cc4ccc23)OCO5)c1OC :: 95
N#Cc1c[nH]c2c[nH]/c(=N\Cc3cccnc3)cc2/c1=N\c1ccc(F)c(Cl)c1 :: 115
CC[C@@H](CO)Nc1nc(NCc2ccccc2)c2ncn(C(C)C)c2n1 :: 98.2
O=C1Nc2ccccc2/C1=C\c1c(Cl)[nH]c2ccccc12 :: 93.4
C[C@@H]1CCN(C(=O)CC#N)C[C@@H]1N(C)c1ncnc2[nH]ccc12 :: 99.4
CCCCc1c(-c2ccc(OC)cc2)[nH]c2nccnc12 :: 96

What does the data say about its residual activity? Entry: O=C1NC(=O)C(c2cn(CCCO)c3ncccc23)=C1c1cnccn1 91.1

What does the data say about its residual activity? Entry: COc1cc2ncnc(Nc3ccc(F)c(Cl)c3)c2cc1OCCCN1CCOCC1 90.1

What does the data say about its residual activity? Entry: Cc1ccc(Nc2nccc(N(C)c3ccc4c(C)n(C)nc4c3)n2)cc1S(N)(=O)=O 98.3

====

molecular target: PRKCI (human); experiment: radiometric filter-binding kinase assay, Kinase HotSpot; settings: compound 0.5 µM; ATP 10 µM
Each entry below carries its recorded residual activity.
Report the figure in % without appending any unit label.

Solved cases below.
COc1ccc2c(c1)c(C1=C(c3c[nH]c4ccccc34)C(=O)NC1=O)cn2CCCN(C)C :: 67.6
O=C1Nc2ccc(Br)cc2/C1=C\c1cc2c([nH]1)CCCC2 :: 92
COc1ccc2c(c1)/C(=C/c1cnc[nH]1)C(O)=N2 :: 96.9

Give residual activity (PRKCI (human)) of the following compound: CCCCc1c(-c2ccc(OC)cc2)[nH]c2nccnc12 72.8

Give residual activity (PRKCI (human)) of the following compound: N#Cc1c[nH]c2c[nH]/c(=N\Cc3cccnc3)cc2/c1=N\c1ccc(F)c(Cl)c1 94.7

====

molecular target: UniProt:P11362; experiment: radiometric filter-binding kinase assay, Kinase HotSpot; settings: compound 0.5 µM; ATP 10 µM
Sequence (P11362 whole entry, looked up): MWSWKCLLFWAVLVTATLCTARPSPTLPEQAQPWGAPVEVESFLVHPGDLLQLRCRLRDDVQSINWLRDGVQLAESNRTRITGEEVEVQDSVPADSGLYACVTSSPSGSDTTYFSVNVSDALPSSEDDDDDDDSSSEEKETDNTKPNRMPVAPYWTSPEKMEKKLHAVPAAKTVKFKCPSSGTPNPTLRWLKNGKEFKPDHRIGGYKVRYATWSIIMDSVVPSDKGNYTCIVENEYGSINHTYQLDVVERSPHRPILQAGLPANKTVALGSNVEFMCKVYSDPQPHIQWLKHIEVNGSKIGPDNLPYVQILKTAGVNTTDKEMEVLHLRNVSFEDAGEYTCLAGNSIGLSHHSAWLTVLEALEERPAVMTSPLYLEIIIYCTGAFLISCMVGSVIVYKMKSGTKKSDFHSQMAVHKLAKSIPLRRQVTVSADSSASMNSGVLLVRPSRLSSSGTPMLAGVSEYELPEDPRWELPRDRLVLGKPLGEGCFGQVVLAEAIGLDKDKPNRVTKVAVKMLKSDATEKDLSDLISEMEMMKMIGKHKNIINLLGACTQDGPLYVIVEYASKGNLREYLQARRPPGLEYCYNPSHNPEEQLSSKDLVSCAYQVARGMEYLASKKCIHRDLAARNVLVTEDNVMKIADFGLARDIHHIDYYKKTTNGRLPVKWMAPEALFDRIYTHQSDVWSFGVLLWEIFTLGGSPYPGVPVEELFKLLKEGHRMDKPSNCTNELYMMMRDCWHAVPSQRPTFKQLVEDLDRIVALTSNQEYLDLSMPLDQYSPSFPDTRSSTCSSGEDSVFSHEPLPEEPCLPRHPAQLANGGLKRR
Each entry below carries its recorded residual activity.
Report the figure in % without appending any unit label.

COc1ccc(Cl)cc1NC(=O)Nc1cc(C)nc2ccccc12 :: 86.1
CCCCc1c(-c2ccc(OC)cc2)[nH]c2nccnc12 :: 83.3
O=C1Nc2ccc(Br)cc2/C1=C\c1cc2c([nH]1)CCCC2 :: 76.7
O=C1NC(=O)c2c1c1c3ccccc3[nH]c1n1cncc21 :: 55.2
COc1ccc(S(=O)(=O)N(CCO)c2ccccc2CN(C)C/C=C/c2ccc(Cl)cc2)cc1 :: 99.5

Proceed to the following item.
What does the data say about its residual activity? Entry: NC(=O)c1cccc(-c2cc(Nc3ccc(OC(F)(F)F)cc3)ncn2)c1 96.9

====

target: PRKCI (human); assay: radiometric filter-binding kinase assay, Kinase HotSpot; settings: compound 0.5 µM; ATP 10 µM
measurement-label: residual activity (%)
Report the figure in % without appending any unit label.

Solved cases below.
CO[C@@H]1[C@H](N(C)C(=O)c2ccccc2)C[C@H]2O[C@]1(C)n1c3ccccc3c3c4c(c5c6ccccc6n2c5c31)C(=O)NC4 :: 96.4
CC(C)(C)c1cc(C=C(C#N)C#N)cc(Br)c1O :: 100
Cn1c2ccccc2c2c3c(c4c5ccccc5n(CCC#N)c4c21)CNC3=O :: 91.6
NC(=O)c1cccc(-c2cc(Nc3ccc(OC(F)(F)F)cc3)ncn2)c1 :: 99.6

Proceed to the following item.
What does the data say about its residual activity? Entry: COc1cc(Nc2c(C#N)cnc3cc(OCCCN4CCN(C)CC4)c(OC)cc23)c(Cl)cc1Cl 99.4

====

target: JAK2 JH1 JH2 (human); assay: radiometric filter-binding kinase assay, Kinase HotSpot; conditions: compound 0.5 µM; ATP 10 µM
measurement-label: residual activity (%)
Report the figure in % without appending any unit label.

N#Cc1c[nH]c2c[nH]/c(=N\Cc3cccnc3)cc2/c1=N\c1ccc(F)c(Cl)c1 :: 99
N#C/C(=C\c1ccc(O)c(O)c1)C(=O)NCc1ccccc1 :: 98.1
CO[C@@H]1[C@H](N(C)C(=O)c2ccccc2)C[C@H]2O[C@]1(C)n1c3ccccc3c3c4c(c5c6ccccc6n2c5c31)C(=O)NC4 :: 8.94

What does the data say about its residual activity? Entry: COc1cc2ncnc(Nc3ccc(Oc4ccccc4)cc3)c2cc1OC 95.6

What does the data say about its residual activity? Entry: COc1ccc(S(=O)(=O)N(CCO)c2ccccc2CN(C)C/C=C/c2ccc(Cl)cc2)cc1 98.4

What does the data say about its residual activity? Entry: Cc1nc(-c2ccccc2)c(-c2ccncc2)o1 98.4

What does the data say about its residual activity? Entry: c1ccc2c(-c3ccncc3)c[nH]c2c1 93.8

====

target: UniProtKB P29322; assay: radiometric filter-binding kinase assay, Kinase HotSpot; conditions: compound 0.5 µM; ATP 10 µM
Sequence (P29322 whole entry, looked up): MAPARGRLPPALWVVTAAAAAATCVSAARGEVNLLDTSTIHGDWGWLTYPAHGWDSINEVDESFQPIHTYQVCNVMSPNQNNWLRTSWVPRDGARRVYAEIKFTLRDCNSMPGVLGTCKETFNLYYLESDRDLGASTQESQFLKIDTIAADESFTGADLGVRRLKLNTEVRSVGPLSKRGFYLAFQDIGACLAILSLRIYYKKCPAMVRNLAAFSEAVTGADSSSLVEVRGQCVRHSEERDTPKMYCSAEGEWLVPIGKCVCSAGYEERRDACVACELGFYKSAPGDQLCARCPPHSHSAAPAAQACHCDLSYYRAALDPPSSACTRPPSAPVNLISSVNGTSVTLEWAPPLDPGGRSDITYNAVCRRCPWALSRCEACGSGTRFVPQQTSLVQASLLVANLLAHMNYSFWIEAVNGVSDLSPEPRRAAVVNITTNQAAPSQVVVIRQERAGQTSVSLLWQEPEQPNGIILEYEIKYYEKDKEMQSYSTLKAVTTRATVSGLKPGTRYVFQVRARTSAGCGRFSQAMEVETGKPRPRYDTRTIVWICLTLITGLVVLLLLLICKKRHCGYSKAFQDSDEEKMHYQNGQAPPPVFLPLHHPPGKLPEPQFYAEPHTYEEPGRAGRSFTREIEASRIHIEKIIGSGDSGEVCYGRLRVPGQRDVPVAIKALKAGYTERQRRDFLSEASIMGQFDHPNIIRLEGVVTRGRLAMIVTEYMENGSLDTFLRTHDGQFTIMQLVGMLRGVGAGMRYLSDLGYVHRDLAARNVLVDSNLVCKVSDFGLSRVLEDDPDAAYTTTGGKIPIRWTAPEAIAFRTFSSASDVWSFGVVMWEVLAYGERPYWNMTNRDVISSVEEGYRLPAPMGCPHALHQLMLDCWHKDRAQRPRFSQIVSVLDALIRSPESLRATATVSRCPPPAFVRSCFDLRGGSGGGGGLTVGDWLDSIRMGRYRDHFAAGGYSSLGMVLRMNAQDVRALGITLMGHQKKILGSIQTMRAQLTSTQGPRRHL
measurement-label: residual activity (%)
Report the figure in % without appending any unit label.

CO[C@@H]1[C@H](N(C)C(=O)c2ccccc2)C[C@H]2O[C@]1(C)n1c3ccccc3c3c4c(c5c6ccccc6n2c5c31)C(=O)NC4 :: 94.1
N#Cc1c[nH]c2c[nH]/c(=N\Cc3cccnc3)cc2/c1=N\c1ccc(F)c(Cl)c1 :: 91.2
Cc1cncc2cccc(S(=O)(=O)N3CCCN(C(=O)CN)C[C@H]3C)c12 :: 95
O=C1C(Cl)=C(N2C(=O)CCC2=O)C(=O)c2ccccc21 :: 107
C[C@@H]1CCN(C(=O)CC#N)C[C@@H]1N(C)c1ncnc2[nH]ccc12 :: 109
COc1cc2ncnc(Nc3ccc(OCc4ccccc4)cc3)c2cc1OC :: 102
Fc1ccc(-c2nc3n(c2-c2ccncc2)CCS3)cc1 :: 88.2
N#C/C(=C\c1ccc(O)c(O)c1)C(=O)NCc1ccccc1 :: 92

What does the data say about its residual activity? Entry: COc1cc2ncnc(Nc3ccc(Oc4ccccc4)cc3)c2cc1OC 97.4

What does the data say about its residual activity? Entry: Cc1nc(-c2ccccc2)c(-c2ccncc2)o1 78.8

====

Each entry below carries its recorded residual activity.
biological target: EPHA4 (human) (UniProt P54764); assay: radiometric filter-binding kinase assay, Kinase HotSpot; details: compound 0.5 µM; ATP 10 µM
Sequence (P54764 whole entry, looked up): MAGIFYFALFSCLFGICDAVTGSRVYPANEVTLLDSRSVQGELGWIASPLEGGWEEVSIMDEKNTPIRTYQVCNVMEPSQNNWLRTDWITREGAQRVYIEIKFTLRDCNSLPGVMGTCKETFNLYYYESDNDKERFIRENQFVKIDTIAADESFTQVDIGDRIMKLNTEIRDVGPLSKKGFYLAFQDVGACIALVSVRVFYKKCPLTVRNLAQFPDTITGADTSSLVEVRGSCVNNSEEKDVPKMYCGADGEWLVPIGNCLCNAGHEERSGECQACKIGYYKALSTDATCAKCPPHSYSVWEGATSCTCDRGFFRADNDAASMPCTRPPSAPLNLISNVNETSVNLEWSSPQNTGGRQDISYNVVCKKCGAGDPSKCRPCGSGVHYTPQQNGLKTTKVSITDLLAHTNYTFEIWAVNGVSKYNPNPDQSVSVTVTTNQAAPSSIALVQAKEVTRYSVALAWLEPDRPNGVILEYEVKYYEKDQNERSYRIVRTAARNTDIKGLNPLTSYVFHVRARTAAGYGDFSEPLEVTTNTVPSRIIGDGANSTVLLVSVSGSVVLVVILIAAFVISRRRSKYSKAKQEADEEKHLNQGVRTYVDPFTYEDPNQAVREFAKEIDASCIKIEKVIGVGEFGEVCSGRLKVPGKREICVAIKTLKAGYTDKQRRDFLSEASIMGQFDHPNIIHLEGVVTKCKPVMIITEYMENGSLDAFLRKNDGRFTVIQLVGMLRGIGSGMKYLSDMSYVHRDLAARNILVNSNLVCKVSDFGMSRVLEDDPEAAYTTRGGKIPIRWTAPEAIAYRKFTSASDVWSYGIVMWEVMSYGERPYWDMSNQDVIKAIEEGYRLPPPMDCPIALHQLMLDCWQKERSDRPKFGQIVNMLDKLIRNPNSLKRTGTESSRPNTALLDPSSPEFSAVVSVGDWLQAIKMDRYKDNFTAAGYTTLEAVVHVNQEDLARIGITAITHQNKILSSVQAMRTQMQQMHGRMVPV
Report the figure in % without appending any unit label.

O=C(c1cc2cc(O)ccc2[nH]1)c1cc2cc(O)ccc2[nH]1 :: 109
O=C1C(Cl)=C(N2C(=O)CCC2=O)C(=O)c2ccccc21 :: 101
Cc1cccc(-c2nc(C(C)(C)C)[nH]c2-c2ccc3c(c2)OCO3)n1 :: 97.3
Cc1cncc2cccc(S(=O)(=O)N3CCCN(C(=O)CN)C[C@H]3C)c12 :: 99.9
c1ccc2c(-c3ccncc3)c[nH]c2c1 :: 108
CC(C)(C)c1cc(C=C(C#N)C#N)cc(Br)c1O :: 94.7
Cn1c2ccccc2c2c3c(c4c5ccccc5n(CCC#N)c4c21)CNC3=O :: 90.4
CO[C@@H]1[C@H](N(C)C(=O)c2ccccc2)C[C@H]2O[C@]1(C)n1c3ccccc3c3c4c(c5c6ccccc6n2c5c31)C(=O)NC4 :: 96.9

What does the data say about its residual activity? Entry: COc1ccc2c(c1)c(C1=C(c3c[nH]c4ccccc34)C(=O)NC1=O)cn2CCCN(C)C 94.5

====

molecular target: RET (human) (UniProt P07949); experiment: radiometric filter-binding kinase assay, Kinase HotSpot; details: compound 0.5 µM; ATP 10 µM
Sequence (P07949 whole entry, looked up): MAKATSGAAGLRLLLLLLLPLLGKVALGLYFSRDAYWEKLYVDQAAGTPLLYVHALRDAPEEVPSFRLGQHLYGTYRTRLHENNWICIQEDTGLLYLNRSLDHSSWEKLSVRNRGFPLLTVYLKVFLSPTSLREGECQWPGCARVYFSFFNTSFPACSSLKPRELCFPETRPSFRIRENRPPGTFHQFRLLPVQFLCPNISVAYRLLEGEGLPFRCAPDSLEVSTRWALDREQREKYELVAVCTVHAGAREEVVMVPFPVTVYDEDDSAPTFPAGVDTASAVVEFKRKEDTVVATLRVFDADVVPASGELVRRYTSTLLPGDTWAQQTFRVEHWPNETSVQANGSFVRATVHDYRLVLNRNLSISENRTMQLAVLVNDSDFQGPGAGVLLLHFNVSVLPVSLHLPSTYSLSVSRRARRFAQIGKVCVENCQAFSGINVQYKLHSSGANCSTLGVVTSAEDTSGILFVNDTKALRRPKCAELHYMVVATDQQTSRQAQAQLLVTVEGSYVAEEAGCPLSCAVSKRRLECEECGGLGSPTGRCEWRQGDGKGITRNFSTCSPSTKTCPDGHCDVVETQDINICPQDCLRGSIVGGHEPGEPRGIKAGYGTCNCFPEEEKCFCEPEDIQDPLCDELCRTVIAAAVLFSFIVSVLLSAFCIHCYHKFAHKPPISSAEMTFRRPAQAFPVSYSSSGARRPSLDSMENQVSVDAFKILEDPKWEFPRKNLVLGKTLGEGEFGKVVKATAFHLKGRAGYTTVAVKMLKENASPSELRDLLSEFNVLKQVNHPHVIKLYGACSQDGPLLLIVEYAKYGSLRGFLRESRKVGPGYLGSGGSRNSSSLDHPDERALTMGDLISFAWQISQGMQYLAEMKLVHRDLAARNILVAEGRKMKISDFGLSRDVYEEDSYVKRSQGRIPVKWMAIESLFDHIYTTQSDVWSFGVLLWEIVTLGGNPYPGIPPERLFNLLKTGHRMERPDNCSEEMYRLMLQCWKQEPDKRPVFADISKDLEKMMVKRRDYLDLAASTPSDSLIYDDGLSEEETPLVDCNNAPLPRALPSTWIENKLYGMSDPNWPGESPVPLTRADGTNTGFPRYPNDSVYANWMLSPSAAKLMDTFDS
Each entry below carries its recorded residual activity.
Report the figure in % without appending any unit label.

CN(C)S(=O)(=O)c1ccc2c(c1)/C(=C/c1cc3c([nH]1)CCCC3)C(=O)N2 :: 6.29

What does the data say about its residual activity? Entry: Cc1cncc2cccc(S(=O)(=O)N3CCCN(C(=O)CN)C[C@H]3C)c12 94.4

What does the data say about its residual activity? Entry: CS(=O)(=O)CCNCc1ccc(-c2ccc3ncnc(Nc4ccc(OCc5cccc(F)c5)c(Cl)c4)c3c2)o1 99.8

====

Each entry below carries its recorded residual activity.
biological target: CDK4 CCND3 (human) (UniProt P30281+P11802); test: radiometric filter-binding kinase assay, Kinase HotSpot; details: compound 0.5 µM; ATP 10 µM
Sequence (P11802 whole entry, looked up): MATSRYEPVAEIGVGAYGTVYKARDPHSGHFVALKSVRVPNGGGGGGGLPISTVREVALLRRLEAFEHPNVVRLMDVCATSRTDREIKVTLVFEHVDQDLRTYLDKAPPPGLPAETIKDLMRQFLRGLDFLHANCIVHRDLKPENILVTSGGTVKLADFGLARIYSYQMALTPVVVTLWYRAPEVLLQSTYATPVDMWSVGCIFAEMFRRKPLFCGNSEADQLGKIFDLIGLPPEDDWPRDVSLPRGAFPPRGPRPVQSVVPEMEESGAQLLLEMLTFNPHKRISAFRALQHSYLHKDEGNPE
Sequence (P30281 whole entry, looked up): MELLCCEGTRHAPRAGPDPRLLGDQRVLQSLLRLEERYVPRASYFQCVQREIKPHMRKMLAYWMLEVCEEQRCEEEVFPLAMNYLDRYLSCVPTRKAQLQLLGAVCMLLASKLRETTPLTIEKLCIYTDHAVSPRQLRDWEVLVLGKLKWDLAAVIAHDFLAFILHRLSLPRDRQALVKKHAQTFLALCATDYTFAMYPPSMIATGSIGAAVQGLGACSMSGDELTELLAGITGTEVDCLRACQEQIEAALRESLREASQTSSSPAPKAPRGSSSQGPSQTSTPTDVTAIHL
Report the figure in % without appending any unit label.

Solved cases below.
Cc1cncc2cccc(S(=O)(=O)N3CCCN(C(=O)CN)C[C@H]3C)c12 :: 105
O=C1Nc2ccc(Br)cc2/C1=C\c1cc2c([nH]1)CCCC2 :: 99.8
COc1ccc(C(=O)Nc2sc3c(c2C(N)=O)CCCC3)cc1OC :: 98.8
COc1cc(Nc2c(C#N)cnc3cc(OCCCN4CCN(C)CC4)c(OC)cc23)c(Cl)cc1Cl :: 103
O=C1C(Cl)=C(N2C(=O)CCC2=O)C(=O)c2ccccc21 :: 107

What does the data say about its residual activity? Entry: Cn1c2ccccc2c2c3c(c4c5ccccc5n(CCC#N)c4c21)CNC3=O 44.5

What does the data say about its residual activity? Entry: CCCCc1c(-c2ccc(OC)cc2)[nH]c2nccnc12 69.7

What does the data say about its residual activity? Entry: CN(C)CCCn1cc(C2=C(c3c[nH]c4ccccc34)C(=O)NC2=O)c2ccccc21 67
